Assay: Gli-Sufu pathway antagonists, primary screen, luciferase luminescence, Sufu-KO-LIGHT cells, uHTS (AID 588413);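 further: 0% = DMSO-treated cells and 100% = wells with medium but no cells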
Settings: Sufu-KO-LIGHT fibroblasts, Gli luciferase reporter luminescence; at 5 µM
In all, about 340,000 compounds went through this assay and about 2,500 (0.74%) were called active.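 How the source made its calls: active means inhibition above about 55% (limit read from the data); inactive means the rest.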 The full list was thinned out, with actives kept by preference.
Give your call using only these classes: yes (1) = active, no (0) = inactive

stdin: Called result for `COc1cc(C(F)(F)F)c(C(=O)N(C)c2ccc(Cl)cc2)cn1`
stdout: no (0)

stdin: Do the same for CC1CC2=C(CC1/C=N/NC(N)=S)C(C)(C)CCC2 (configuration not stated) please
stdout: yes (1)

stdin: Do the same for `O=C(COc1cccnc1[N+](=O)[O-])Nc1ccc(Cl)cc1F` please
stdout: no (0)

stdin: Do the same for `CCCN(C(=O)CSc1nnnn1C)c1c(N)n(Cc2ccccc2)c(=O)[nH]c1=O` please
stdout: no (0)

stdin: Do the same for `Cc1ccc2c(=O)cc(C(=O)NCCc3ccc(S(N)(=O)=O)cc3)oc2c1C` please
stdout: no (0)

stdin: Do the same for `Cc1ccc(C)c(NS(=O)(=O)c2c(C)[nH]c(C)c2C(=O)N2CCCCC2)c1` please
stdout: no (0)

stdin: Do the same for `Cc1ccc(CN(Cc2cccnc2)C(=S)Nc2cc(Cl)ccc2C)cc1` please
stdout: no (0)

stdin: Do the same for `CC(=O)c1cccc(NC(=O)c2cc(C)nn2-c2ccccc2)c1` please
stdout: no (0)

stdin: Do the same for `COc1ccc(CCC(=O)c2ccc(OC)cc2)cc1` please
stdout: no (0)

stdin: Do the same for CCc1ccc(C2C(C#N)=C(N)N(N3CCOCC3)C3=C2C(=O)CC(C)(C)C3)s1 (configuration not stated) please
stdout: yes (1)

stdin: Do the same for COc1ccc(C2C(C#N)=C(/N=C/N3CCOCC3)OC3=C2C(=O)CC(C)(C)C3)cc1OC (configuration not stated) please
stdout: no (0)

stdin: Do the same for `COc1ccccc1N1CCN(Cc2ccc(OC)c3ccccc23)CC1` please
stdout: no (0)

stdin: Do the same for CCc1ccc(C2C(C#N)=C(N)N(N(C)C)C3=C2C(=O)CCC3)s1 (configuration not stated) please
stdout: no (0)

stdin: Do the same for `Fc1ccc(CNc2nc3ccccc3n3nnnc23)cc1` please
stdout: no (0)

stdin: Do the same for CCOC(=O)C(CO)NC(=O)C1(NC(C)=O)CCCC1 (configuration not stated) please
stdout: no (0)

stdin: Do the same for `COc1ccc(-n2c(Cc3cccn3C)nnc2SCC(=O)Nc2cc(C)cc(C)c2)cc1` please
stdout: no (0)

stdin: Do the same for `CCCCC(=O)Nc1ccc(C(=O)Nc2cc(C(F)(F)F)ccc2Cl)cc1` please
stdout: no (0)

stdin: Do the same for `COC(=O)c1cc(=O)n(-c2c(Cl)cc(C(F)(F)F)cc2Cl)[nH]1` please
stdout: no (0)

stdin: Do the same for `S=C(Cc1ccc(Cl)cc1)N1CCOCC1` please
stdout: no (0)

stdin: Do the same for `CCN(CC(=O)Nc1ccccc1C(F)(F)F)C(=O)C1CCN(C(=O)Nc2ccccc2)CC1` please
stdout: no (0)

stdin: Do the same for NC(=O)N1CCCC1C(=O)Nc1ccc(Cl)c(Cl)c1 (configuration not stated) please
stdout: no (0)

stdin: Do the same for `CSc1nsc(SC)c1NC(=O)OC1CCCCC1` please
stdout: no (0)

----------
Assay: Gli-Sufu pathway antagonists, primary screen, luciferase luminescence, Sufu-KO-LIGHT cells, uHTS (AID 588413);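 further: 0% = DMSO-treated cells and 100% = wells with medium but no cells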
Details: Sufu-KO-LIGHT fibroblasts, Gli luciferase reporter luminescence; at 5 µM; hits give high values
The whole screen tested about 340,000 compounds, of which about 2,500 (0.74%) were called active. For the sample, actives were picked, then their nearest neighbours and some compounds at random.
REPORTED_PROPERTY: inhibition (%)
Express your answer in %, writing the number without its unit.

stdin: Form field: reported inhibition of `CNC(=O)c1ccsc1NC(=O)c1ccc(S(=O)(=O)N2CCc3ccccc32)cc1`
stdout: 5.3

stdin: Do the same for `Cc1ccc(NC(=O)c2sccc2C)cc1[N+](=O)[O-]` please
stdout: -30.3

stdin: Do the same for `Cc1ccc(NC(=O)c2cccc(S(=O)(=O)N3CCCc4ccccc43)c2)nc1` please
stdout: -3.22

stdin: Do the same for `CC(C)(C)c1ccc(OC2=CS(=O)(=O)c3ccccc32)cc1` please
stdout: -36.6

stdin: Do the same for `C=CCn1c(Oc2ccc(C(=O)OC)cc2)nc2c1c(=O)n(C)c(=O)n2C` please
stdout: 1.23

stdin: Do the same for Cc1cccc(N2CC(C(=O)Nc3ccccc3N3CCCC3)CC2=O)c1C (stereo unspecified) please
stdout: -3.8

stdin: Do the same for `Brc1c(CSc2nncc3ccccc23)nc2ccccn12` please
stdout: 65

stdin: Do the same for `N=C1C(c2nc3ccccc3s2)=C(O)CN1NC(=O)c1ccc([N+](=O)[O-])cc1` please
stdout: -3.9

stdin: Do the same for `CCOc1cccc(C(=O)Nc2cnn(Cc3ccccc3)c2)c1` please
stdout: -43.8

stdin: Do the same for CC(OC(=O)c1ccc([N+](=O)[O-])cc1)C(=O)NCC1CCCCC1 (stereo unspecified) please
stdout: 6.02

stdin: Do the same for `O=C1Nc2ccc(Br)cc2/C1=N/N=C/C1=C(N2CCOCC2)C(=C\c2ccccc2)/CC1` please
stdout: 20.5

stdin: Do the same for `CN(C)CCCN(C(=O)c1ccc(S(=O)(=O)N2CCCCCC2)cc1)c1nc2ccc(Br)cc2s1` please
stdout: 42.7

stdin: Do the same for O=C(NC1CCc2ccccc21)C12CN(Cc3ccccc3)CC1C(c1cccc([N+](=O)[O-])c1)=NO2 (stereo unspecified) please
stdout: 6.88

stdin: Do the same for `C/C(=N\Nc1cccc(C(=O)O)c1)c1ccc2c(c1)Nc1ccccc1S2` please
stdout: -35.5

stdin: Do the same for `COc1cc(-c2nc(S(=O)(=O)c3ccc(Cl)cc3)c(N(C)C)o2)cc(OC)c1OC` please
stdout: 7.51

stdin: Do the same for `O=C(NOCc1ccccc1)c1cccc([N+](=O)[O-])c1` please
stdout: -14.1

stdin: Do the same for `O=C(Nc1nc2ccc([N+](=O)[O-])cc2s1)c1ccc(S(=O)(=O)N2CCCc3ccccc32)cc1` please
stdout: 77.6

stdin: Do the same for `CN(CC(=O)Nc1cccc(F)c1)C(=O)C1=COCCO1` please
stdout: -13.3

stdin: Do the same for `CCOc1ccc2nc(N(CCCN(C)C)C(=O)c3ccc(C(=O)c4ccccc4)cc3)sc2c1` please
stdout: 65.2

stdin: Do the same for `Cn1c(=O)c2c(nc(OCc3cccnc3)n2Cc2ccccc2)n(C)c1=O` please
stdout: 8.04

stdin: Do the same for `Cc1nn(Cc2ccc(F)cc2)c(C)c1NC(=O)c1noc2c1CCc1ccccc1-2` please
stdout: 6.19

stdin: Do the same for `O=C(COc1cccc(Cl)c1)NCc1ccccc1` please
stdout: 5.34

stdin: Do the same for `COC[C@@H]1NS(=O)(=O)c2ccc(Br)cc2O[C@H]1c1ccccc1` please
stdout: 15.6

stdin: Do the same for `COc1ccc(-c2c(C#Cc3ccsc3)c3cc(-c4ccc(CN5CCOCC5)cc4)ccc3n2C)cc1` please
stdout: 9.39

stdin: Do the same for `C=CCOc1nc2c(c(=O)n(C)c(=O)n2C)n1Cc1ccc(Cl)cc1Cl` please
stdout: 62

stdin: Do the same for `CCc1ccc2nc(N(CCCN(C)C)C(=O)c3ccc4c(c3)OCCO4)sc2c1` please
stdout: 11.7

stdin: Do the same for `CC(C)c1ccc(/C=C/C(=O)NCCCN2CCOCC2)cc1` please
stdout: -8.47

stdin: Do the same for CC(C)C(C)NC(=O)COc1nc2ccccc2nc1N(C)C1CCCCC1 (stereo unspecified) please
stdout: -2.52

stdin: Do the same for COc1cc(C(=O)OC(C)C(=O)NCC2CCCCC2)cc(NC(=O)c2ccco2)c1OC (stereo unspecified) please
stdout: 61.1

stdin: Do the same for `CCc1nnc(NC(=O)CCN(c2ccc(C)cc2)S(=O)(=O)c2ccccc2)s1` please
stdout: -7.2

stdin: Do the same for `COc1cccc(Oc2ccc(N)cc2)c1` please
stdout: -23.1

----------
Assay: Gli-Sufu pathway antagonists, primary screen, luciferase luminescence, Sufu-KO-LIGHT cells, uHTS (AID 588413);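 further: 0% = DMSO-treated cells and 100% = wells with medium but no cells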
Conditions: Sufu-KO-LIGHT fibroblasts, Gli luciferase reporter luminescence; at 5 µM; hits give high values
In all, about 340,000 compounds went through this assay and about 2,500 (0.74%) were called active. The sample holds actives, similar compounds and a random draw of the others, so the mix is not that of the screen.
REPORTED_PROPERTY: inhibition (%)
Express your answer in %, writing the number without its unit.

stdin: Form field: reported inhibition of `Cc1ccc(Cl)cc1-c1ccc(/C=N/n2cnnc2)o1`
stdout: 20.2

stdin: Do the same for `COc1ccc(OC)c(Cc2nnc(CCC(=O)NC3CCCC3)o2)c1` please
stdout: -18.7

stdin: Do the same for `c1ccc(-n2nnnc2NC2CCCCCC2)cc1` please
stdout: 8.53

stdin: Do the same for `Cc1ccc(-n2ncc3c(=O)n(-c4ccc(C)c(C)c4)c(-c4ccco4)nc32)cc1` please
stdout: 4.8

stdin: Do the same for NC(=O)CC(NC(=O)Cc1ccc(Br)cc1)c1ccc(NC2CC3CCC2C3)c([N+](=O)[O-])c1 (configuration not stated) please
stdout: 19

stdin: Do the same for `c1ccc(-n2nnnc2N2CCOCC2)cc1` please
stdout: 94.8

stdin: Do the same for CCN1CCC2(CCN(Cc3cn[nH]c3-c3ccc(OC)c(F)c3)C2)C1 (configuration not stated) please
stdout: 7.07

stdin: Do the same for `CC(=O)Cn1cnc2c(cnn2-c2ccccc2)c1=O` please
stdout: -18.4

stdin: Do the same for `COc1ccc(OC)c(Cc2cnc3nc(N)nc(N)c3c2C)c1` please
stdout: 63.1

stdin: Do the same for `CSc1ccccc1NC(=O)Cc1ccc(Br)cc1` please
stdout: 1.53

stdin: Do the same for CNCC(O)c1ccc(O)c(O)c1 (configuration not stated) please
stdout: -2.95

stdin: Do the same for NC1=NC(=O)C(Cc2cccc(Cl)c2Cl)S1 (configuration not stated) please
stdout: -27.7
